Biological target: UDP-N-acetylmuramoyl-tripeptide--D-alanyl-D-alanine ligase (Pseudomonas aeruginosa, UniProt Q9EY48)
Sequence (Q9EY48 whole entry): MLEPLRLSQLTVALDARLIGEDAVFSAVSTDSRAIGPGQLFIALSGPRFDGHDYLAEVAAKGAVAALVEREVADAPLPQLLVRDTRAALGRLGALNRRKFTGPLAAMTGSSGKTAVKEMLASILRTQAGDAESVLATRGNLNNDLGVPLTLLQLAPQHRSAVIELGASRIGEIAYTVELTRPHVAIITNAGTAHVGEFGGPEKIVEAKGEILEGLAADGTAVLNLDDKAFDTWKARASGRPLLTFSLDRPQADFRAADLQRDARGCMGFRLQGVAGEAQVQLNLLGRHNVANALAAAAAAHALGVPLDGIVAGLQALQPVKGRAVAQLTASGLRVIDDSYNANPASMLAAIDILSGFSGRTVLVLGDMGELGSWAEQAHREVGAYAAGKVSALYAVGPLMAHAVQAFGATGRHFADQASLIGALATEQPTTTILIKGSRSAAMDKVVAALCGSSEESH
Assay: Inhibition of Pseudomonas aeruginosa MurF ATPase activity by spectrophotometric assay
Listing of entries alongside the reported pIC50.
Schema: pIC50 number; meaning minus log10 of the concentration expressed in molar units.

- COMPOUND: "COc1ccc(NC(=O)C(=O)Cc2nc3ccc([N+](=O)[O-])cc3nc2O)c(OC)c1"
  pIC50: 3.90
- COMPOUND: "C[C@]12CCC(=O)C=C1CC[C@@H]1[C@@H]2[C@@H](O)C[C@@]2(C)[C@H]1CC[C@]2(O)C(=O)COC(=O)C1C2C=CC(C2)C1C(=O)O (stereo partly specified)"
  pIC50: 2.37
- COMPOUND: "O=C1C=CC(=O)C(SCCCSC2=CC(=O)C(SCCCSC3=CC(=O)C=CC3=O)=CC2=O)=C1"
  pIC50: 3.52

What value of pIC50 has been recorded for this entry: `CSc1ncnc2c1ncn2CC(=O)[C@@]1(O)CC[C@H]2[C@@H]3CCC4=CC(=O)CC[C@]4(C)[C@H]3[C@@H](O)C[C@@]21C`
2.32

Let us now turn to `COc1ccc(CCN2C(=O)c3cccc4c(Sc5ccccc5[N+](=O)[O-])ccc(c34)C2=O)cc1OC`
3.49

* * *

Biological target: UniProt Q8DNV6
Experiment: Inhibition of Streptococcus pneumoniae MurF
Listing: pIC50 of selected compounds
Just the number, please; pIC50 means minus log10 of the concentration in mol/L.

- COMPOUND: "CCN(CC)S(=O)(=O)c1cc(C(=O)Nc2sc3c(c2C#N)CC(c2ccc(O)cc2)CC3)c(Cl)cc1Cl (stereo not drawn)"
  pIC50: 7.17
- COMPOUND: "N#Cc1c(NC(=O)c2cc(S(=O)(=O)N3CCCCC3)ccc2Cl)sc2c1CCC2"
  pIC50: 5.60
- COMPOUND: "CCN(CC)S(=O)(=O)c1ccc(Cl)c(C(=O)Nc2sc3c(c2C#N)CC(c2ccc(O)cc2)CC3)c1 (stereo not drawn)"
  pIC50: 7.27

Form field - read-out: pIC50; system: UniProt Q8DNV6; submitted item: N#Cc1c(NC(=O)c2cc(S(=O)(=O)N3CCOCC3)c(Cl)cc2Cl)sc2c1CC(c1ccccc1)CC2 (stereo not drawn)
7.15

* * *

Molecular target: UDP-N-acetylmuramoyl-tripeptide--D-alanyl-D-alanine ligase (Pseudomonas aeruginosa)
Test: Inhibition of Pseudomonas aeruginosa MurF ATPase activity assessed as residual enzyme activity at 5 mM by spectrophotometric assay relative to control
MEASURE: Activity

- COMPOUND: "COc1ccc(NC(=O)C(=O)Cc2nc3ccc([N+](=O)[O-])cc3nc2O)c(OC)c1"
  Activity: "0%"
- COMPOUND: "C[C@]12CCC(=O)C=C1CC[C@@H]1[C@@H]2[C@@H](O)C[C@@]2(C)[C@H]1CC[C@]2(O)C(=O)COC(=O)CCC1CCCC1 [HYDROCORTISONE CYPIONATE]"
  Activity: "86%"
- COMPOUND: "O=C1C=CC(=O)C(SCCCSC2=CC(=O)C(SCCCSC3=CC(=O)C=CC3=O)=CC2=O)=C1"
  Activity: "0%"

API: the following record is the query input.
If you can, please state the reported Activity value of `C[C@]12CCC(=O)C=C1CC[C@@H]1[C@@H]2[C@@H](O)C[C@@]2(C)[C@H]1CC[C@]2(O)C(=O)COC(=O)c1cc([N+](=O)[O-])ccc1Cl` .
67%

* * *

Quick reference: pIC50 of the listed items.
Target: UDP-N-acetylmuramoyl-tripeptide--D-alanyl-D-alanine ligase (Pseudomonas aeruginosa, UniProt Q9EY48)
Assay: Inhibition of Pseudomonas aeruginosa MurF ATPase activity by spectrophotometric assay
pIC50: −log10 of the molar value.

Some solved cases for reference:
- COMPOUND: "O=S(=O)(O)c1ccc(/N=N/c2ccc(O)c(/N=N/c3ccc(S(=O)(=O)O)c4ccccc34)c2O)c2ccccc12"
  pIC50: "< 2.30"
- COMPOUND: "Cn1nnnc1SCC1=C(C(=O)O)N2C(=O)[C@@H](NC(=O)[C@H](OC=O)c3ccccc3)[C@H]2SC1 [CEFAMANDOLE NAFATE]"
  pIC50: "< 2.30"

Which pIC50 reading was recorded for the compound `CCOC(=O)Cn1/c(=N/N=C/c2ccc([N+](=O)[O-])o2)sc2cc(OC)ccc21` ?
< 2.29

Here is the next compound: C[C@]12CCC(=O)C=C1CC[C@@H]1[C@@H]2[C@@H](O)C[C@@]2(C)[C@H]1CC[C@]2(O)C(=O)COC(=O)CCC1CCCC1 [HYDROCORTISONE CYPIONATE]
< 2.30

Let us now turn to `C[C@]12CCC(=O)C=C1CC[C@@H]1[C@@H]2[C@@H](O)C[C@@]2(C)[C@H]1CC[C@]2(O)C(=O)COC(=O)c1cc([N+](=O)[O-])ccc1Cl`
< 2.30

Lookup `O=S(=O)(SC(=S)NCCNC(=S)SS(=O)(=O)c1ccc(Cl)cc1)c1ccc(Cl)cc1`
< 2.30

* * *

Consider the following compounds and their measured IC50 readings.
Biological target: UDP-N-acetylmuramoylalanine-D-glutamyl-lysine-D-alanyl-D-alanine ligase (Streptococcus pneumoniae R6, UniProt Q8DNV6)
Sequence (Q8DNV6 whole entry): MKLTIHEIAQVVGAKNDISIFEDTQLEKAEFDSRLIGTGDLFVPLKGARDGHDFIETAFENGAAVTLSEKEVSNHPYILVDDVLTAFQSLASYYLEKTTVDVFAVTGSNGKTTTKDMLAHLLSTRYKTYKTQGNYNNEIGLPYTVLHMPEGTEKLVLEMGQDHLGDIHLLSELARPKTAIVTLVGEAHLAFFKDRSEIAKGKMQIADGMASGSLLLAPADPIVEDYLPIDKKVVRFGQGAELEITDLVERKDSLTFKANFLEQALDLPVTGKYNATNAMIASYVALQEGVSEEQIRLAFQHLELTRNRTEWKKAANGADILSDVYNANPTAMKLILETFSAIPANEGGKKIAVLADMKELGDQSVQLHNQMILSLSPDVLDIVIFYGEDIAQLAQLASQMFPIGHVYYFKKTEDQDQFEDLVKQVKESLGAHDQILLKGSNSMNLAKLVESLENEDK
Number in µM, nothing else.

# count of solved cases: 2
- COMPOUND: "N#Cc1c(NC(=O)c2cc(S(=O)(=O)N3CCOCC3)c(Cl)cc2Cl)sc2c1CC(c1ccc(O)cc1)CC2 (centres undefined)"
  IC50 / µM: 0.022
- COMPOUND: "CCOC(=O)C1CCc2sc(NC(=O)c3cc(S(=O)(=O)N(CC)CC)ccc3Cl)c(C#N)c2C1 (centres undefined)"
  IC50 / µM: 6

Give its IC50 value. Item: `N#Cc1cc(CCc2ccncc2)sc1NC(=O)c1cc(S(=O)(=O)N2CCOCC2)ccc1Cl`
6

* * *

Molecular target: UDP-N-acetylmuramoyl-tripeptide--D-alanyl-D-alanine ligase (Pseudomonas aeruginosa) (UniProt Q9EY48)
Sequence (whole entry): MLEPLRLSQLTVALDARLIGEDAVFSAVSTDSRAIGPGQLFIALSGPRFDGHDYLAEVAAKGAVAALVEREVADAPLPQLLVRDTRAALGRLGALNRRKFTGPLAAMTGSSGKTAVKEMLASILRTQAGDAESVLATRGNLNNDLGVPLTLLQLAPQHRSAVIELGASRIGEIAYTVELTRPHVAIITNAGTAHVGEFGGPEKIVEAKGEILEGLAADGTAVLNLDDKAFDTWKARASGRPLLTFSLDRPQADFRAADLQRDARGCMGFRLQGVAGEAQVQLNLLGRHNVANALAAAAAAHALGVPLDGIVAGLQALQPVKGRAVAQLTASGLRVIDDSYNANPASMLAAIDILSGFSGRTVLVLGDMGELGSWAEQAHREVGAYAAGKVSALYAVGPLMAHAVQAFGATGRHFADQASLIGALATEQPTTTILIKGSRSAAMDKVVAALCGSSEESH
Experiment: Inhibition of Pseudomonas aeruginosa MurF ATPase activity assessed as residual enzyme activity at 5 mM by spectrophotometric assay relative to control
Below, each entry is listed alongside its reported Activity.
Form entry: value (%) — number only.

Example compounds with recorded Activity:
- COMPOUND: "O=S(=O)(SC(=S)NCCNC(=S)SS(=O)(=O)c1ccc(Cl)cc1)c1ccc(Cl)cc1"
  UNITS: "%"
  Activity: 71
- COMPOUND: "O=S(=O)(O)c1ccc(/N=N/c2ccc(O)c(/N=N/c3ccc(S(=O)(=O)O)c4ccccc34)c2O)c2ccccc12"
  UNITS: "%"
  Activity: 100
- COMPOUND: "CSc1ncnc2c1ncn2CC(=O)[C@@]1(O)CC[C@H]2[C@@H]3CCC4=CC(=O)CC[C@]4(C)[C@H]3[C@@H](O)C[C@@]21C"
  UNITS: "%"
  Activity: 48
- COMPOUND: "Cn1nnnc1SCC1=C(C(=O)O)N2C(=O)[C@@H](NC(=O)[C@H](OC=O)c3ccccc3)[C@H]2SC1 [CEFAMANDOLE NAFATE]"
  UNITS: "%"
  Activity: 84
- COMPOUND: "C[C@]12CCC(=O)C=C1CC[C@@H]1[C@@H]2[C@@H](O)C[C@@]2(C)[C@H]1CC[C@]2(O)C(=O)COC(=O)C1C2C=CC(C2)C1C(=O)O (some centres not stated)"
  UNITS: "%"
  Activity: 42

// returns reported Activity for input `COc1ccc(CCN2C(=O)c3cccc4c(Sc5ccccc5[N+](=O)[O-])ccc(c34)C2=O)cc1OC`
0

Repeat with `CCOC(=O)Cn1/c(=N/N=C/c2ccc([N+](=O)[O-])o2)sc2cc(OC)ccc21`
51
